Cited source for all entries: PubChem BioAssay AID449762

- Tested on: M. tuberculosis H37Rv growth inhibition, 7H9 media
- assay_method_text: M. tuberculosis growth inhibition, HTS (AID 449762);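 note: bacterial growth assessed after seven days of incubation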
- experimental_setup: measured here: IC90 growth inhibition
Records with an inconclusive call do not appear.

{"molecule": "CCCCCOc1ccc(NC2=CC(=O)CCC2)cc1", "IC90": "> 100 µM"}
{"molecule": "Cc1ccc(Cl)cc1N1CCN(Cc2nc3ccsc3c(=O)[nH]2)CC1", "IC90": "> 100 µM"}
{"molecule": "Fc1ccc(N/N=C2/CC(c3ccccc3)Oc3ccccc32)c(F)c1 (stereo not drawn)", "IC90": "> 100 µM"}

---

Entries annotated with measured IC90
- Test system: M. tuberculosis H37Rv growth inhibition, 7H9 media
- assay_method_text: M. tuberculosis growth inhibition, HTS (AID 449762);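 note: bacterial growth assessed after seven days of incubation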
- experimental_setup: measured here: IC90 growth inhibition
Inconclusive results are not listed.
assay_readout: IC90 (µM)

{"molecule": "N/C(Cc1ccc([N+](=O)[O-])cc1)=N\\OC(=O)c1ccc2ccccc2c1", "assay_readout": "IC90", "qualifier": ">", "value": 100}
{"molecule": "Cc1cccc(NS(=O)(=O)c2ccc(C(=O)N3CCN(c4ccccc4O)CC3)cc2)c1C", "assay_readout": "IC90", "qualifier": ">", "value": 100}
{"molecule": "Nc1ccc2cc(Br)ccc2c1", "assay_readout": "IC90", "qualifier": "=", "value": 84.9}
{"molecule": "Cc1ccc(C(=O)C2CCN(CC(=O)Nc3nc(C)cs3)CC2)cc1", "assay_readout": "IC90", "qualifier": "=", "value": 25.2}
{"molecule": "COCC(=O)O[C@]1(CCN(C)CCCc2nc3ccccc3[nH]2)CCc2cc(F)ccc2[C@@H]1C(C)C", "assay_readout": "IC90", "qualifier": "=", "value": 42.6}
{"molecule": "COc1cc(C)c(/C=C/C(C)=C/C=C/C(C)=C/C(=O)O)c(C)c1C", "assay_readout": "IC90", "qualifier": "=", "value": 6.76}
{"molecule": "Cn1nnc(NC(=S)NC(=O)c2ccc(-c3ccc(Br)cc3)o2)n1", "assay_readout": "IC90", "qualifier": ">", "value": 100}
{"molecule": "COc1ccc(-c2ccc(-c3noc(C(C)C)n3)c(OC)n2)cc1", "assay_readout": "IC90", "qualifier": "=", "value": 26.7}
{"molecule": "CSC(=S)N/N=C/c1ccccc1", "assay_readout": "IC90", "qualifier": "=", "value": 12.8}
{"molecule": "O=C(Sc1nnc(-c2ccccc2)o1)N1c2ccccc2Sc2ccccc21", "assay_readout": "IC90", "qualifier": ">", "value": 100}
{"molecule": "CCOc1cc(/C=N/Nc2nc(Nc3ccccc3)nc(N3CCCCC3)n2)ccc1OCC(=O)O", "assay_readout": "IC90", "qualifier": "=", "value": 23.4}
{"molecule": "Nc1c(-c2ccccn2)cnn1-c1nc(-c2ccc(F)cc2)cs1", "assay_readout": "IC90", "qualifier": ">", "value": 100}
{"molecule": "CC(C(Sc1ccccc1N)c1ccccc1)[N+](=O)[O-] (configuration not stated)", "assay_readout": "IC90", "qualifier": ">", "value": 100}
{"molecule": "COc1cccc(-c2nnc(NC(=O)c3ccc(S(=O)(=O)N4CCOCC4)cc3)o2)c1", "assay_readout": "IC90", "qualifier": "=", "value": 26.7}
{"molecule": "C(=N\\NC1=Nc2cccc3cccc1c23)/c1cccnc1", "assay_readout": "IC90", "qualifier": ">", "value": 100}
{"molecule": "CCCOc1ccc2oc(=O)c3c(c2c1)CCCN3C(=O)CN1CCN(c2ncccn2)CC1", "assay_readout": "IC90", "qualifier": "=", "value": 33.8}
{"molecule": "CCn1c(C)c(C)c2cc(C(=O)Nc3cccc(Cl)c3)ccc21", "assay_readout": "IC90", "qualifier": ">", "value": 100}
